assay: LD50 / acute toxicity, intraperitoneal route; assay type: in vivo; settings: i.p.
Counter-ions that a name gives are not always drawn.
Output y for records whose LD50 is lower than 900 mg/kg, n for records at or above 900 mg/kg.

>>> category("CC[C@]12CCCN3CCc4c(n(c5ccccc45)[C@@](O)(C(=O)OC)C1)[C@@H]32 [Example 18.a, Vincamine enanthate]")
"y"
>>> category("CC[C@]12CCCN3CCc4c(n(c5ccccc45)[C@@](O)(C(=O)OC)C1)[C@@H]32 [Example 3.a, Vincamine glucose-1-phosphate]")
"n"
>>> category("CC[C@@]12C=C(C(=O)OC)n3c4c(c5ccccc53)CCN(CCC1)[C@H]42 [Example 18.b]")
"n"
>>> category("CC[C@]12CCCN3CCc4c(n(c5ccccc45)[C@@](O)(C(=O)OC)C1)[C@@H]32 [Example 22.a, Vincamine caprate]")
"n"
>>> category("CC[C@]12CCCN3CCc4c(n(c5ccccc45)[C@@](O)(C(=O)OC)C1)[C@@H]32 [Example 4.a, Vincamine glucose-1-phosphate, acid salt]")
"y"

====

experiment: LD50 / acute toxicity, intraperitoneal route; format: in vivo; conditions: i.p.; Gleason class in words, classes not defined
Structures can show the parent of a compound that is named as a salt.
observable: Toxicity (Gleason)

>>> valuemeasured("CC[C@@]12C=C(C(=O)OC)n3c4c(c5ccccc53)CCN(CCC1)[C@H]42 [Example 19.b, Apovincamine p-chlorophenoxyacetate]")
"modest"
>>> valuemeasured("CC[C@]12CCCN3CCc4c(n(c5ccccc45)[C@@](O)(C(=O)OC)C1)[C@@H]32 [Example 10.a]")
"light"
>>> valuemeasured("CC[C@]12CCCN3CCc4c(n(c5ccccc45)[C@@](O)(C(=O)OC)C1)[C@@H]32 [Example 19.a, Vincamine p-chlorophenoxyacetate]")
"modest"
>>> valuemeasured("CC[C@]12CCCN3CCc4c(n(c5ccccc45)[C@@](O)(C(=O)OC)C1)[C@@H]32 [Example 13.a, Vincamine D(+)-camphorsulfonate]")
"light"
>>> valuemeasured("CC[C@]12CCCN3CCc4c(n(c5ccccc45)[C@@](O)(C(=O)OC)C1)[C@@H]32 [Example 16.a, Vincamine acetylsalicylate]")
"modest"
>>> valuemeasured("CC[C@@]12C=C(C(=O)OC)n3c4c(c5ccccc53)CCN(CCC1)[C@H]42 [Example 15.b, Apovincamine nicotinate]")
"modest"
>>> valuemeasured("CC[C@]12CCCN3CCc4c(n(c5ccccc45)[C@@](O)(C(=O)OC)C1)[C@@H]32 [Example 4.c, glucose-6-phosphate acid salt]")
"modest"
>>> valuemeasured("CC[C@]12CCCN3CCc4c(n(c5ccccc45)[C@@](O)(C(=O)OC)C1)[C@@H]32 [Example 12.a, Vincamine furoate (furan-2-carboxylate)]")
"modest"
>>> valuemeasured("CC[C@]12CCCN3CCc4c(n(c5ccccc45)[C@@](O)(C(=O)OC)C1)[C@@H]32 [Example 9.a]")
"modest"

====

Listing of recorded LD50 by entry.
assay: LD50 / acute toxicity, intraperitoneal route; type: in vivo; conditions: i.p.
observable: LD50

>>> valuemeasured("CC[C@]12CCCN3CCc4c(n(c5ccccc45)[C@@](O)(C(=O)OC)C1)[C@@H]32 [Example 5.a, Vincamine 2,6-dihydroxybenzoate]")
"550 mg/kg"
>>> valuemeasured("CC[C@]12CCCN3CCc4c(n(c5ccccc45)[C@@](O)(C(=O)OC)C1)[C@@H]32 [Example 20.a, Vincamine theophylline-7-acetate]")
"700 mg/kg"
>>> valuemeasured("CC[C@@]12C=C(C(=O)OC)n3c4c(c5ccccc53)CCN(CCC1)[C@H]42 [Example 8.b, Apovincamine p-toluensulfonate]")
"900 mg/kg"
